// provenance: ChEMBL document CHEMBL4052799

Experiment: Oral bioavailability in Sprague-Dawley rat at 1 mg/kg administered through cassette dosing
Type: ADME, organism-based
Conditions: in vivo
# reported bioavailability; entries follow
Give the number; % is assumed, so skip it.

INSERT INTO measurements (compound, value_measured) VALUES
  ('O=c1ccc(-c2cc(C[C@]3(O)CC[C@H](Cc4ccc(Cl)cc4)CC3)no2)c[nH]1', 38.7);

May I ask what bioavailability has been recorded for `O=C1CCc2cc(NC(=O)C[C@]3(O)CC[C@@H](Cc4ccccc4)CC3)ccc2N1` ?
53.4

Which bioavailability value is on record for `O[C@]1(Cc2cc(-c3cn[nH]c3)on2)CC[C@H](Cc2ccc(F)cc2)CC1` ?
78

Item under review: O=C(Nc1ccc2[nH]c(=O)oc2c1)C(=O)N1CCC(Cc2ccc(F)cc2)CC1 [RADIPRODIL] . Reported bioavailability?
30

What does the record list as bioavailability for `O[C@]1(Cc2cc(-c3cn[nH]c3)on2)CC[C@H](Cc2ccccc2)CC1` ?
46.3

====

Form field: IC50 (one value per entry).
Biological target: Glutamate receptor ionotropic, NMDA 2B (Rattus norvegicus)
Sequence (Q00960 whole entry): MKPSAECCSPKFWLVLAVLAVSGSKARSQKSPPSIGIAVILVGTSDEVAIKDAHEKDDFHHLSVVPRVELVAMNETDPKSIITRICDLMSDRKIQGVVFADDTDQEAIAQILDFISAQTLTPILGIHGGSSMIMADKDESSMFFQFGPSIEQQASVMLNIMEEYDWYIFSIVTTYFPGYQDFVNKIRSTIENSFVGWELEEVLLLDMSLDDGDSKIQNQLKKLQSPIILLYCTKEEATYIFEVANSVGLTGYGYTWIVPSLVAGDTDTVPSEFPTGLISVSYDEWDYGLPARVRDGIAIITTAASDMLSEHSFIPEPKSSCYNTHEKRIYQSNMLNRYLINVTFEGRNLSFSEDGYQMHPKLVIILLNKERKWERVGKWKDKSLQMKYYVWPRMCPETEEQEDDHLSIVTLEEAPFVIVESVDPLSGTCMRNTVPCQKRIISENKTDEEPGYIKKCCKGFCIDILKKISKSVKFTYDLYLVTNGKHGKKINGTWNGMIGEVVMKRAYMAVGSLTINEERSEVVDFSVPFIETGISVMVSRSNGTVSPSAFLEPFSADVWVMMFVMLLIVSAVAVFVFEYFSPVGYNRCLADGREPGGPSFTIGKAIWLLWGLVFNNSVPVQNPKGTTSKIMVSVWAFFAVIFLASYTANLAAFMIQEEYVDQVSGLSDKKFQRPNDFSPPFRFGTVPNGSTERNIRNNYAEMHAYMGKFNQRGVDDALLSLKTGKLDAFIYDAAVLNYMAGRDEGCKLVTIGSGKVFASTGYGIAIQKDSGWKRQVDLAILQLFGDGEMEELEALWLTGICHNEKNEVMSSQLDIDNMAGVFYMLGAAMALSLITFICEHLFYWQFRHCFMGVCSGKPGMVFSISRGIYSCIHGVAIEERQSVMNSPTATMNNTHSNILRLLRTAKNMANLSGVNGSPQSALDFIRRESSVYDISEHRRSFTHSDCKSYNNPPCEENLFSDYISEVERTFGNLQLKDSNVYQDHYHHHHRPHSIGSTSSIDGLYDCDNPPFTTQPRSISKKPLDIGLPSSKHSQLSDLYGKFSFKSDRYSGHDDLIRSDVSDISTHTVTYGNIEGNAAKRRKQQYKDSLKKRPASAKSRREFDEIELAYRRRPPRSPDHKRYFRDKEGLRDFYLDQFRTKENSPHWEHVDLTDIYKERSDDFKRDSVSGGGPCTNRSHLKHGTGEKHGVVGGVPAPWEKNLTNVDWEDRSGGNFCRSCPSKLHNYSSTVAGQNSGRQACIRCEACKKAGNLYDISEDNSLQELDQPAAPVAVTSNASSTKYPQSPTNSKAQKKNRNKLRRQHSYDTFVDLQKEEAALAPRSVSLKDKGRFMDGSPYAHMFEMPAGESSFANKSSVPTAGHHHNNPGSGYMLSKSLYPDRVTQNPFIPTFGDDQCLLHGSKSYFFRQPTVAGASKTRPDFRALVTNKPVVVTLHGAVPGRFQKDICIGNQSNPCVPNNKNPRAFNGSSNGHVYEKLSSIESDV
Assay: Displacement of [3H]-ifenprodil from NR2B in Wistar rat brain membrane after 120 mins by liquid scintillation counting analysis

The following compounds have reported results that may help.
INSERT INTO results (chemical_string, value_measured) VALUES
  ('O=C(C[C@]1(O)CC[C@@H](Cc2ccc(C(F)(F)F)cc2)CC1)Nc1ccc2[nH]c(=O)oc2c1', '25.1 nM'),
  ('O=C(C[C@]1(O)CC[C@H](Cc2ccccc2)CC1)Nc1ccc2[nH]c(=O)oc2c1', '31.6 nM'),
  ('COc1ccc(C[C@H]2CC[C@](O)(CC(=O)Nc3ccc4[nH]c(=O)oc4c3)CC2)cc1', '63.1 nM'),
  ('O=C1Cc2cc(NC(=O)C[C@]3(O)CC[C@@H](Cc4ccccc4)CC3)ccc2N1', '31.6 nM');

Pending compound:
Give the measured IC50 of `O=C(C[C@]1(O)CC[C@@H](Cc2ccc(F)c(F)c2)CC1)Nc1ccc2[nH]c(=O)oc2c1` .
25.1 nM

====

Assay: Oral bioavailability in Sprague-Dawley rat at 1 mg/kg administered through cassette dosing
Assay type: ADME, organism-based
Details: in vivo
Class Fulfilled: bioavailability at least 40%. Class Not fulfilled: bioavailability below 40%.

INSERT INTO measurements (chemical_string, label) VALUES
  ('COc1ccc(C[C@H]2CC[C@](O)(CC(=O)Nc3ccc4[nH]c(=O)oc4c3)CC2)cc1', 'Not fulfilled'),
  ('O=C(C[C@]1(O)CC[C@@H](Cc2ccc(F)c(F)c2)CC1)Nc1ccc2[nH]c(=O)oc2c1', 'Not fulfilled'),
  ('O=C(C[C@]1(O)CC[C@@H](Cc2ccc(F)cc2)CC1)Nc1ccc2[nH]c(=O)oc2c1', 'Fulfilled'),
  ('O=C(C[C@]1(O)CC[C@@H](Cc2ccccc2)CC1)Nc1ccc2[nH]c(=O)oc2c1', 'Fulfilled');

Quick check, bioavailability >= 40%? `O=c1ccc(-c2cc(C[C@]3(O)CC[C@@H](Cc4ccc(Cl)cc4)CC3)no2)c[nH]1`
Not fulfilled

Answer whether bioavailability of `O=C(C[C@]1(O)CC[C@@H](Cc2ccc(OC(F)(F)F)cc2)CC1)Nc1ccc2[nH]c(=O)oc2c1` is greater than or equal to 40%.
Fulfilled

Check the entry `O[C@]1(Cc2cc(-c3cn[nH]c3)on2)CC[C@H](Cc2ccc(Cl)cc2)CC1` : does bioavailability equal or exceed 40%?
Fulfilled

====

In this section we review reported IC50 values for a set of compounds.
Target: Glutamate receptor ionotropic, NMDA 2B (Mus musculus, UniProt P35438+Q01097)
Sequence (Q01097 whole entry, one chain of several): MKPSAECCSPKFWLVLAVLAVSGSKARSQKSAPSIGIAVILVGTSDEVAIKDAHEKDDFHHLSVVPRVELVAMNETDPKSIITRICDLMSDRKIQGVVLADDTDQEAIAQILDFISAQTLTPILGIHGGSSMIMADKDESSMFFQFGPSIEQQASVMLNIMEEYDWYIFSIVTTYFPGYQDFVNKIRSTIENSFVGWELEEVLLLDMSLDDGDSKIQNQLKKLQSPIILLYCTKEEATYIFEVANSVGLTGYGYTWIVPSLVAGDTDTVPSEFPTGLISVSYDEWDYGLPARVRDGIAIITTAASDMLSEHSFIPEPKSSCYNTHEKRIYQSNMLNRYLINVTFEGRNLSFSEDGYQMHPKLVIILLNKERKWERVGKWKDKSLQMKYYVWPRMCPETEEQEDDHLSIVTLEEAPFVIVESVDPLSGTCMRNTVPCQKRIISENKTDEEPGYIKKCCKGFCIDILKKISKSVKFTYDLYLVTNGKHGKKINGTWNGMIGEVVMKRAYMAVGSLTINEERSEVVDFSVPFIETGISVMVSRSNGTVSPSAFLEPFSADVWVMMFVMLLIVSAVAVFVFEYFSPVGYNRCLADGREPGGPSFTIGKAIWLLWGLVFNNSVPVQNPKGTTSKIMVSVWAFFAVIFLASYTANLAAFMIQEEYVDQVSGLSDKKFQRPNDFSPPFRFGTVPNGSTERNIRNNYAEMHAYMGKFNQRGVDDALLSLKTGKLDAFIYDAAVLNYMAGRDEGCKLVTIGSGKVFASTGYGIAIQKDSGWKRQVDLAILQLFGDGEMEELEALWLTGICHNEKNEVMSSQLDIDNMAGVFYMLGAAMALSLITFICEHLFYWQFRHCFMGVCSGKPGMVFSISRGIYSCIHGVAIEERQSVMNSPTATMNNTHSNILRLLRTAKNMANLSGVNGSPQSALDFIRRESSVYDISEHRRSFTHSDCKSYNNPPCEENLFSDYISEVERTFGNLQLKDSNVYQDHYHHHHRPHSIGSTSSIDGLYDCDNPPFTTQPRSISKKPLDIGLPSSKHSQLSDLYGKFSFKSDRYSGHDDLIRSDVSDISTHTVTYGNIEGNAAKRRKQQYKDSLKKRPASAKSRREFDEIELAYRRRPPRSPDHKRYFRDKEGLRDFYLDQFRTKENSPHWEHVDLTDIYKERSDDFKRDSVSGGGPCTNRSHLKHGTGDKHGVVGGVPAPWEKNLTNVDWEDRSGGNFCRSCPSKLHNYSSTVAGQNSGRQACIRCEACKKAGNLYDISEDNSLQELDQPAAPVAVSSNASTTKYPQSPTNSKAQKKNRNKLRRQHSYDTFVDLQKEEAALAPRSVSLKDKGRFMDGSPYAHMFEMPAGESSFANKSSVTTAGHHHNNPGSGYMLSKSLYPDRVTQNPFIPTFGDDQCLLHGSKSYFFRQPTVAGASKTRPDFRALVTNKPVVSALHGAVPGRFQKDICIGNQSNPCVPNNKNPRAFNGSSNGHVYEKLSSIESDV
Test: Antagonist activity at mouse NR2B expressed in Hek293 cells co-expressing mouse NR1 assessed as inhibition of glutamic acid/glycine-induced intracellular Ca2+ levels measured after 1 day post induction by Fluo-3/AM dye-based fluorescence assay
Format: cell-based
A number alone suffices; assume nM.

Study these solved cases before continuing.
INSERT INTO measurements (chemical_string, system_name, value_measured) VALUES
  ('O=c1[nH]c2ccc(-c3cc(C[C@]4(O)CC[C@@H](Cc5ccccc5)CC4)no3)cc2o1', 'Glutamate receptor ionotropic, NMDA 2B (Mus musculus, UniProt P35438+Q01097)', 15.8),
  ('O[C@]1(Cc2cc(-c3cn[nH]c3)on2)CC[C@H](Cc2ccccc2)CC1', 'Glutamate receptor ionotropic, NMDA 2B (Mus musculus, UniProt P35438+Q01097)', 15.8),
  ('COc1ccc(C[C@H]2CC[C@](O)(CC(=O)Nc3ccc4[nH]c(=O)oc4c3)CC2)cc1', 'Glutamate receptor ionotropic, NMDA 2B (Mus musculus, UniProt P35438+Q01097)', 1),
  ('O=c1[nH]c2ccc(-c3cc(C[C@]4(O)CC[C@@H](Cc5ccc(Cl)cc5)CC4)no3)cc2o1', 'Glutamate receptor ionotropic, NMDA 2B (Mus musculus, UniProt P35438+Q01097)', 39.8);

Requested field: IC50. Item: `O=c1ccc(-c2nc(C[C@]3(O)CC[C@@H](Cc4ccc(Cl)cc4)CC3)no2)c[nH]1`
158

Requested field: IC50. Item: `COc1ccc(C[C@H]2CC[C@](O)(Cc3cc(-c4cn[nH]c4)on3)CC2)cc1`
25.1

# input compound: `O[C@]1(Cc2cc(-c3cn[nH]c3)on2)CC[C@H](Cc2ccc(OC(F)(F)F)cc2)CC1` ; wanted: its IC50
25.1

Request the reported IC50 associated with `O=c1ccc(-c2cc(C[C@]3(O)CC[C@@H](Cc4ccccc4)CC3)no2)c[nH]1`
10

# get_value(readout='IC50', item= `O=C(C[C@]1(O)CC[C@@H](Cc2ccc(C(F)(F)F)cc2)CC1)Nc1ccc2[nH]c(=O)oc2c1` )
6.31

====

Reported values of pIC50 for individual entries
Biological target: Glutamate receptor ionotropic, NMDA 2B (Rattus norvegicus)
Test: Displacement of [3H]-ifenprodil from NR2B in Wistar rat brain membrane after 120 mins by liquid scintillation counting analysis
The scale used: pIC50 is minus the common logarithm of the concentration in molar units.

These recorded examples may help you get a feel for the data.
INSERT INTO assay_data (chemical_string, system_name, measurement_kind, value_measured) VALUES
  ('O=C(C[C@]1(O)CC[C@@H](Cc2ccc(Cl)cc2)CC1)Nc1ccc2[nH]c(=O)oc2c1', 'Glutamate receptor ionotropic, NMDA 2B (Rattus norvegicus)', 'pIC50', 7.60),
  ('O=C(C[C@]1(O)CC[C@@H](Cc2ccccc2)CC1)Nc1ccc2[nH]ncc2c1', 'Glutamate receptor ionotropic, NMDA 2B (Rattus norvegicus)', 'pIC50', 7.20),
  ('O=c1[nH]c2ccc(-c3cc(C[C@]4(O)CC[C@@H](Cc5ccccc5)CC4)no3)cc2o1', 'Glutamate receptor ionotropic, NMDA 2B (Rattus norvegicus)', 'pIC50', 7.00),
  ('O[C@]1(Cc2cc(-c3cn[nH]c3)on2)CC[C@H](Cc2ccc(F)c(F)c2)CC1', 'Glutamate receptor ionotropic, NMDA 2B (Rattus norvegicus)', 'pIC50', 7.10),
  ('O=C(Nc1ccc2[nH]c(=O)oc2c1)C(=O)N1CCC(Cc2ccc(F)cc2)CC1', 'Glutamate receptor ionotropic, NMDA 2B (Rattus norvegicus)', 'pIC50', 7.50),
  ('O=c1[nH]c2ccc(-c3cc(C[C@]4(O)CC[C@@H](Cc5ccc(Cl)cc5)CC4)no3)cc2o1', 'Glutamate receptor ionotropic, NMDA 2B (Rattus norvegicus)', 'pIC50', 6.70);

Recorded pIC50 for `O=C(C[C@]1(O)CC[C@@H](Cc2ccc(OC(F)(F)F)cc2)CC1)Nc1ccc2[nH]c(=O)oc2c1` with Glutamate receptor ionotropic, NMDA 2B (Rattus norvegicus), please?
7.30

Record lookup: for Glutamate receptor ionotropic, NMDA 2B (Rattus norvegicus), what pIC50 belongs to `O[C@]1(Cc2cc(-c3cn[nH]c3)on2)CC[C@H](Cc2ccc(OC(F)(F)F)cc2)CC1` ?
7.10

====

Test: Ratio of drug level in brain to plasma in Sprague-Dawley rat at 0.5 mg/kg, iv administered through cassette dosing measured after 0.5 hrs
Format: ADME, organism-based
Settings: brain and plasma
Parameter: Kp at 0.5 h. Scope: all listed entries.
Answer with a number only.

Check out these entries, answers already filled in.
INSERT INTO results (chemical_string, measurement_kind, value_measured) VALUES
  ('O[C@]1(Cc2cc(-c3cn[nH]c3)on2)CC[C@H](Cc2ccc(OC(F)(F)F)cc2)CC1', 'Kp at 0.5 h', 2.51),
  ('O=c1ccc(-c2cc(C[C@]3(O)CC[C@@H](Cc4ccc(Cl)cc4)CC3)no2)c[nH]1', 'Kp at 0.5 h', 0.08),
  ('O[C@]1(Cc2cc(-c3cn[nH]c3)on2)CC[C@H](Cc2ccccc2)CC1', 'Kp at 0.5 h', 1.44);

Lab note: next compound to report on.
Please look up its Kp at 0.5 h: `O=C1Cc2cc(NC(=O)C[C@]3(O)CC[C@@H](Cc4ccccc4)CC3)ccc2N1`
0.11
